Test system: johnsongrass (Sorghum halepense)
Experiment: Test C pre/postemergence
Assay type: in vivo
Details: Sorghum halepense, pre-emergence, Preemergence, 31 g ai/ha; scale 0 to 100, 0 no effect, 100 complete control; read-out: Plant response rating, Johnsongrass
Overview of recorded pest or weed control at 31 g/ha for various compounds
Answer with the figure and its unit, nothing else.

A selection of reference data follows.
{"Compound": "CCOC(=O)c1nc(-c2ccc(Cl)cc2)nc(N)c1Cl", "Value Kind": "pest or weed control at 31 g/ha", "Result": "5%"}
{"Compound": "COC(=O)c1nc(C2CC2)nc(N)c1Cl", "Value Kind": "pest or weed control at 31 g/ha", "Result": "15%"}
{"Compound": "COC(=O)c1nc(C2CC2)nc(N)c1F", "Value Kind": "pest or weed control at 31 g/ha", "Result": "0%"}
{"Compound": "Nc1nc(-c2ccc(Br)cc2)nc(C(=O)O)c1Cl", "Value Kind": "pest or weed control at 31 g/ha", "Result": "60%"}

Alright, here's another compound for you.
Fill in: pest or weed control at 31 g/ha of Nc1nc(C2CC2)nc(C(=O)[O-])c1Cl.[Na+] [Compound 77, monosodium salt] is ___
0%

---

Test system: morningglory (Ipomoea spp.)
Test: Test A pre/postemergence
Assay type: in vivo
Conditions: Preemergence, 500 g ai/ha; 0 to 100 scale where 0 is no effect and 100 is complete control; approximately ten days
Recorded Plant response rating, Morningglory for the following compounds
Number only, no unit.

Using the record for COC(=O)c1nc(-c2ccc(C)cc2)nc(N)c1Br , report its Plant response rating, Morningglory.
0

Requested read-out: Plant response rating, Morningglory. Entry: Nc1nc(C2CC2)nc(C(=O)O)c1Cl
100

Can you look up the measured Plant response rating, Morningglory of CCOC(=O)c1nc(-c2ccc(OC(F)(F)F)cc2)nc(N)c1Cl for me?
0

---

System: cocklebur (Xanthium strumarium)
Test: Test B pre/postemergence
Assay type: in vivo
Settings: Preemergence, 500 g ai/ha; scale 0 to 100 (0 no effect, 100 complete control)
Value Kind: Cocklebur plant response rating
Number, no unit, nothing else.

{"Compound": "COC(=O)c1nc(C2CC2)nc(N=CN(C)C)c1Br", "Cocklebur plant response rating": 100}
{"Compound": "COC(=O)CNc1nc(C2CC2)nc(C(=O)OC)c1Br", "Cocklebur plant response rating": 90}
{"Compound": "CCOC(=O)C(Cl)(Cl)c1nc(C2CC2)nc(N)c1Br", "Cocklebur plant response rating": 60}
{"Compound": "CCOC(=O)C(Cl)c1nc(C2CC2)nc(N)c1Br (stereo not drawn)", "Cocklebur plant response rating": 100}
{"Compound": "Nc1nc(C2CC2)nc(C=NO)c1Br", "Cocklebur plant response rating": 90}
{"Compound": "CCOC(=O)c1nc(C2CC2)nc(NCCOC)c1Br", "Cocklebur plant response rating": 30}

I'd like to know its Cocklebur plant response rating. The compound in question is CCOC(=O)Cc1nc(-c2ccc(Cl)cc2)nc(N)c1Br
10

Which measured Cocklebur plant response rating value corresponds to CCOC(=O)C(C)c1nc(C2CC2)nc(N)c1Br (stereo not drawn) ?
90

For the compound shown here, CCOC(=O)c1nc(-c2ccc(Cl)cc2)nc(N)c1Br , give the reported Cocklebur plant response rating.
80
